Source: PubChem BioAssay (NCI)

Each record here notes measured growth inhibition.
Experiment: NCI Yeast Anticancer Drug Screen. Data for the wt2 strain (AID 169);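 further: 0% = growth of vehicle-treated yeast cultures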
Settings: S. cerevisiae wt2 strain growth inhibition; at 1.2 µM; active compounds read high
This is part of a sample that, as a whole, favours compounds with a hit. Of some 79,000 tested, about 15% had one in any assay.
Give the value in % but do not write % after it.

Some entries whose results are on file:
Endpoint output: growth inhibition of Cc1oc2ccccc2c(=O)c1Cn1nnc2ccccc21 . Value?
-2

Entry O=S(=O)(c1ccccc1)N1CN2CN(C1)CN(S(=O)(=O)c1ccccc1)C2 please
-9

Repeat for the following compound: CNC(=O)OCc1c(COC(=O)NC)c(C)n(-c2ccc(Br)cc2)c1C
-28

How about this compound: Cc1ccnc2c(O)cccc12
-8

Next compound: CC1=CN2C(c3ccccc3)=NON(c3ccc(C)cn3)C2C=C1 (stereo unspecified)
-7

---
State the recorded growth inhibition for this entry: Cc1cc(C)c(S(=O)(=O)c2ccc(Cl)cc2)c(C)c1
-5

Then CCOP(=O)(OCC)/C(C#N)=C/c1cccc(Oc2ccccc2)c1 ?
1

Next up: CCCCCCCCCC(=O)N(CCC)CCC
-5

Subsequent entry: COc1ccc2nc3cccc([N+](=O)[O-])c3c(NCCCCCC(=O)O)c2c1
6

Entry CC1=NN(C(=O)CC(=O)NC(=O)/C=C\c2ccccc2)C(=O)C1N=Nc1ccc([N+](=O)[O-])cc1 (stereo unspecified) please
0

# repeat for CCN(CC)CCNc1ccc2ncn3c4ccc(O)cc4c(=O)c1c23
-1

---

Assay: NCI Yeast Anticancer Drug Screen. Data for the rad50EPP+ strain (AID 151);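 further: 0% = growth of vehicle-treated control cultures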
Details: S. cerevisiae rad50 mutant strain, at 3.7 µM, active compounds read high
This is part of a sample that, as a whole, favours compounds with a hit. Of some 79,000 tested, about 15% had one in any assay.
endpoint: growth inhibition (%)
Provide only the numeric value, understood in %.

A selection of reference data follows.
Recorded growth inhibition of CCC(/C=C/c1ccccc1)=N\Nc1ccc(Cl)c(Cl)c1 , please.
20

Entry C[n+]1c(/C=C/c2ccc(/C=N/NC(=O)c3ccc(C(=O)N/N=C/c4ccc(/C=C/c5cn6ccccc6[n+]5C)cc4)cc3)cc2)cn2ccccc21 please
97

Thanks! And N#C/C(=C\NC(=S)Nc1ccc(S(N)(=O)=O)cc1)C(=O)c1ccc2ccccc2c1 ?
-3

Quick one: O=C(NCCCCN1CC2CCCC2C1)C(C1CCCCC1)C1CCCCC1 (stereo not drawn)
1

Also, CC(C)C(=O)CC(Sc1ccc(N)cc1)c1ccccc1 (stereo not drawn) please.
-4

Alright, here's another molecule for you.
Dear colleague, I am looking for the recorded growth inhibition of the following molecule: COC1=CCC23C(=O)C=CC(=O)C2(C1)C(=O)c1ccccc1C3=O (stereo not drawn)
17

---

Experiment: NCI Yeast Anticancer Drug Screen. Data for the mgt1 strain (AID 153)
Details: S. cerevisiae mgt1 mutant growth inhibition; at 100.0 µM; active compounds read high
About 79,000 compounds went through this panel and 15% of them were active in at least one assay; those are over-represented in the sample as a whole.
Entries and their growth inhibition values follow.
The figure you give is taken to be in %; do not add the unit.

Worked cases, answers included:
Please report the recorded growth inhibition for CC12CCC(CC(=O)/C1=C(/Br)I)C2(C)C (stereo unspecified) .
0

Try this compound next: O=NC1c2cccc3cccc(c23)C1N=O (stereo unspecified)
94

Next up: O=C(NCCCCN(CCCNC(=O)C(F)(F)F)Cc1ccccc1)C(F)(F)F
7

Would you kindly repeat that for CC(C)CCC[C@@H](C)[C@H]1CC[C@H]2[C@@H]3CC[C@H]4C[C@H](N)CC[C@]4(C)[C@H]3CC[C@]12C ?
2

Try this compound too: Cc1nc2sc3c(c2c(=O)o1)CCCC3
7

Continuing:
Which growth inhibition is reported for this compound? Cc1ccc(NC(Nc2ccc(C)cc2C)=C(C(Cl)=C(Cl)Cl)[N+](=O)[O-])c(C)c1
95

Do the same for Nc1ccc2c(c1)C(=O)c1c(F)cccc1-2 please
74

Then this compound: Brc1ccc(B2Nc3ccccc3N2)cc1
5

Next up: CN(C)CCNC(=Cc1ccc2ccccc2[n+]1C)NCCN(C)C
-1

Next record, please: O=C(Cc1ccccc1)NNc1nc(NNC(=O)c2ccncc2)nc(Nc2ccc(Cl)cc2)n1
-1

Another compound to check: COC(=O)C(=O)c1c(-c2ccc(Cl)c(Cl)c2)[nH]c2[nH]n(-c3ccccc3)c(=O)c2c1=O
68
